Where these numbers come from: the nanobody polyreactivity screen of Harvey et al. (2022)

ASSAY TEXT: yeast display, Sf9 membrane polyspecificity reagent, FACS + sequencing; frameworks hold sequencing errors

SEQUENCE CHAIN: QVQLVESGGGLVQAGGSLRLSCAASGGIFAPNAMGWYRQAPGKERELVAAISTGGGSTRYADSVKGRFTISRDNAKNTVYLQMNSLKPEDTAVYYCAATRVGVRRMDYWGQGTQVTVSS
polyreactivity (PSR sort gate): low polyreactivity

SEQUENCE CHAIN: QVQLVESGGGLLQAGGSLRLSCAASGIFGRYAMGWYRQAPGKERELVAGISWSGVRTYYADSVKGRFTISRDNAKNTVYLQINSLKPEDTSVYYCPARPWNDGYYVGRFHMDYWGQGTQVTVSS
polyreactivity (PSR sort gate): low polyreactivity
